system: Bacteroides spp. spontaneous mutants; assay: Broth microdilution MIC of spontaneous mutants; assay type: cell-based; details: B. vulgatus ATCC 8482 Parent (Table 50)
experimental_endpoint: MIC (mg/L)
Numeric only. Scale: mg/L

| smi | MIC, mg/L |
| --- | --- |
| COc1c(N2C[C@@H]3CCCN[C@@H]3C2)c(F)cc2c(=O)c(C(=O)O)cn(C3CC3)c12 | 0.5 |
| CCC[C@@H]1C[C@@H](C(=O)N[C@@H]([C@H]2O[C@H](SC)[C@H](O)[C@@H](O)[C@H]2O)[C@H](C)Cl)N(C)C1 | 0.25 |
| CO[C@H]1/C=C/O[C@@]2(C)Oc3c(C)c(O)c4c(O)c(c5c(nc6cc(C)ccn65)c4c3C2=O)NC(=O)/C(C)=C\C=C\[C@H](C)[C@H](O)[C@@H](C)[C@@H](O)[C@@H](C)[C@H](OC(C)=O)[C@@H]1C | 0.06 |

Let's switch to this compound now.
Name the recorded MIC of the compound listed here: Cc1ncc([N+](=O)[O-])n1CCO
1

###

test system: Streptococcus spp. spontaneous mutants; experiment: organism not typed; format: cell-based; conditions: S. pneumoniae ATCC 49619; selected on rifaximin 4X MIC; Colony A
experimental_endpoint: MIC (µg/mL)
# output: bare number, implied unit µg/mL

Please tell me the measured MIC for CO/N=C(\C(=O)N[C@@H]1C(=O)N2C(C(=O)O)=C(CSc3nc(=O)c(=O)[nH]n3C)CS[C@H]12)c1csc(N)n1 [ceftriaxone] ; system: Streptococcus spp. spontaneous mutants.
0.03

Given CC[C@H]1OC(=O)[C@H](C)[C@@H](O[C@H]2C[C@@](C)(OC)[C@@H](O)[C@H](C)O2)[C@H](C)[C@@H](O[C@@H]2O[C@H](C)C[C@H](N(C)C)[C@H]2O)[C@](C)(O)C[C@@H](C)CN(C)[C@H](C)[C@@H](O)[C@]1(C)O [AZI] , report its MIC on Streptococcus spp. spontaneous mutants.
0.03

// fetch MIC for COc1c(N2C[C@@H]3CCCN[C@@H]3C2)c(F)cc2c(=O)c(C(=O)O)cn(C3CC3)c12 [MOX] ; system: Streptococcus spp. spontaneous mutants
0.06

Enter measured MIC, system Streptococcus spp. spontaneous mutants, for the compound shown: CCC[C@@H]1C[C@@H](C(=O)N[C@@H]([C@H]2O[C@H](SC)[C@H](O)[C@@H](O)[C@H]2O)[C@H](C)Cl)N(C)C1 [CLIN]
0.03

State the measured MIC (Streptococcus spp. spontaneous mutants) of CN(C)[C@@H]1C(O)=C(C(N)=O)C(=O)[C@@]2(O)C(O)=C3C(=O)c4c(O)cccc4[C@@](C)(O)[C@H]3C[C@@H]12 [TET]
0.06

Lab note: Streptococcus spp. spontaneous mutants assay, enter MIC for C[C@@H](O)[C@H]1C(=O)N2C(C(=O)O)=C(S[C@@H]3CN[C@H](C(=O)N(C)C)C3)[C@H](C)[C@H]12 [meropenem] here
0.03

###

tested on: Streptococcus spp. spontaneous mutants; assay: organism not typed; type: cell-based; settings: S. pneumoniae ATCC 49619; selected on rifaximin 8X MIC; Colony A
Collected MIC values appear next to each entry.
Report the figure in µg/mL without appending any unit label.

Below, 5 compounds whose answers are already recorded.
| compound | unit_descriptor | MIC |
| --- | --- | --- |
| C[C@@H](O)[C@H]1C(=O)N2C(C(=O)O)=C(S[C@@H]3CN[C@H](C(=O)N(C)C)C3)[C@H](C)[C@H]12 [meropenem] | µg/mL | 0.03 |
| CO/N=C(\C(=O)N[C@@H]1C(=O)N2C(C(=O)O)=C(CSc3nc(=O)c(=O)[nH]n3C)CS[C@H]12)c1csc(N)n1 [ceftriaxone] | µg/mL | 0.03 |
| COc1c(N2C[C@@H]3CCCN[C@@H]3C2)c(F)cc2c(=O)c(C(=O)O)cn(C3CC3)c12 [MOX] | µg/mL | 0.06 |
| CC[C@H]1OC(=O)[C@H](C)[C@@H](O[C@H]2C[C@@](C)(OC)[C@@H](O)[C@H](C)O2)[C@H](C)[C@@H](O[C@@H]2O[C@H](C)C[C@H](N(C)C)[C@H]2O)[C@](C)(O)C[C@@H](C)CN(C)[C@H](C)[C@@H](O)[C@]1(C)O [AZI] | µg/mL | 0.03 |
| CCC[C@@H]1C[C@@H](C(=O)N[C@@H]([C@H]2O[C@H](SC)[C@H](O)[C@@H](O)[C@H]2O)[C@H](C)Cl)N(C)C1 [CLIN] | µg/mL | 0.03 |

As a next step, examine the compound that follows.
Could you please provide reported MIC for CN(C)[C@@H]1C(O)=C(C(N)=O)C(=O)[C@@]2(O)C(O)=C3C(=O)c4c(O)cccc4[C@@](C)(O)[C@H]3C[C@@H]12 [TET] ? Thanks!
0.06
